// provenance: the supplement of paper PMC6555819

- Tested on: LXRa homodimer (NR concentration 270 nM)
- assayComment: PBM binding z-score (relative to random genomic background probes); higher = stronger binding; sequences stand for … in GC…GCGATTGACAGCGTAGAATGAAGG
Please go through the items and note down their PBM binding z-score.
One number for each entry.

Worked set:
{"columns": ["sequenceEntry", "PBM binding z-score"],
 "data": [
  ["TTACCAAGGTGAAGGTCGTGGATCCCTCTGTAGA", 0.0601],
  ["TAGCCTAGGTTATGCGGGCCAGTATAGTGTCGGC", -0.618],
  ["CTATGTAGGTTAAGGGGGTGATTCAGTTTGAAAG", 0.79],
  ["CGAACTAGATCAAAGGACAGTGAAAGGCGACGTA", -0.396],
  ["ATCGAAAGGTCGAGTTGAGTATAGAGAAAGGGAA", 0.29]
]}

For each entry beneath this line, provide reported PBM binding z-score.
1. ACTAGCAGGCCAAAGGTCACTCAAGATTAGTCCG
2. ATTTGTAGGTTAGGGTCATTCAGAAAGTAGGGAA
3. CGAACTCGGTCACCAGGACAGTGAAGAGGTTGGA
4. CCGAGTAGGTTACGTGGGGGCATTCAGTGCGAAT
5. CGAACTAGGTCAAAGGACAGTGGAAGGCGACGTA
6. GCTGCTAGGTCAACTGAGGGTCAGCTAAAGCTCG

Result:
[2.36, 2.51, 0.119, 1.53, -0.0912, 1.48]

---

- Tested on: PPARg:RXRa 90nM:30nM, anti-RXR (NR concentration 90 nM, RXRa partner concentration 30 nM)
- assayComment: PBM binding z-score (relative to random genomic background probes); higher = stronger binding; sequences stand for … in GC…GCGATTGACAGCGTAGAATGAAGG
I would appreciate it if you labelled entries Y when PBM binding z-score is 5 or higher, otherwise N.

Problem: Textbook exercise: given the entry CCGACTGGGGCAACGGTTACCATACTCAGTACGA , state whether its PBM binding z-score is greater than or equal to 5.
Result: N

Problem: Textbook exercise: given the entry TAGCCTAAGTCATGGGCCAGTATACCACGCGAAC , state whether its PBM binding z-score is greater than or equal to 5.
Result: N

Problem: Textbook exercise: given the entry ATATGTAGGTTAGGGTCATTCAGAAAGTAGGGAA , state whether its PBM binding z-score is greater than or equal to 5.
Result: Y

Problem: Textbook exercise: given the entry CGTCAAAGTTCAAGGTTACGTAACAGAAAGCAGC , state whether its PBM binding z-score is greater than or equal to 5.
Result: N

Problem: Textbook exercise: given the entry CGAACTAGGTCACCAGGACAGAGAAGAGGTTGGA , state whether its PBM binding z-score is greater than or equal to 5.
Result: Y

Problem: Textbook exercise: given the entry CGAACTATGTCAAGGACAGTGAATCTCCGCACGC , state whether its PBM binding z-score is greater than or equal to 5.
Result: N

Problem: Textbook exercise: given the entry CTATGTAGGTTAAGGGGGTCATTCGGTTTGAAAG , state whether its PBM binding z-score is greater than or equal to 5.
Result: Y

---

- Tested on: RARb:RXRa (NR concentration 270 nM, RXRa partner concentration 90 nM)
- assayComment: PBM binding z-score (relative to random genomic background probes); higher = stronger binding; sequences stand for … in GC…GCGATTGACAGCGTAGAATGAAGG
assayEndpoint: PBM binding z-score
Give bare numbers.

Worked set:
{"columns": ["sequenceEntry", "studySystem", "readoutValue"],
 "data": [
  ["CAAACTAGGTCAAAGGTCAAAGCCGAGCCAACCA", "RARb:RXRa (NR concentration 270 nM, RXRa partner concentration 90 nM)", 5.94],
  ["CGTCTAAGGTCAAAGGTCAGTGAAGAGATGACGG", "RARb:RXRa (NR concentration 270 nM, RXRa partner concentration 90 nM)", 6.07]
]}

For each entry beneath this line, provide reported PBM binding z-score.
1. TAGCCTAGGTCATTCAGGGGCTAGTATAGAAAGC
2. CTATGTAGGTTCAGGGGGTCATTCAGTTTGAAAG
3. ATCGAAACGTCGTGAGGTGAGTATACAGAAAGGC
4. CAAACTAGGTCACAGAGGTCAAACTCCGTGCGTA
5. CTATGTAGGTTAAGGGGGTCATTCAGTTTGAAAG
6. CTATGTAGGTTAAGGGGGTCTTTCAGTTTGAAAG
7. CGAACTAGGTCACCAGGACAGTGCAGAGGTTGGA
8. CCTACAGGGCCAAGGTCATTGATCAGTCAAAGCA

Result:
3.76
3.59
-0.0846
5.52
3.73
1.89
4.14
3.47

For each entry beneath this line, provide reported PBM binding z-score.
1. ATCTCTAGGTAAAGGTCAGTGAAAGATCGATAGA
2. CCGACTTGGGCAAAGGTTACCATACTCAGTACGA

Result:
1: 4.53; 2: 1.92

For each entry beneath this line, provide reported PBM binding z-score.
1. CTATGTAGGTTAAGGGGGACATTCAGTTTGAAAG
2. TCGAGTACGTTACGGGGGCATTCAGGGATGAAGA

Result:
[2.1, 1.38]
